src = patent US20180353457A1

Test system: COLO 205 (colon cancer) cells
experiment_summary: NCI-60 five dose screen, COLO 205
particulars: read-out: LC50; COLO 205, Colon
measurement_name: CC50 (µM)
One number for each entry, in µM.

-- ask Quote CC50 reported for CC(=O)O[C@@H]1C[C@H]2C(C)(C)CCC[C@]2(C)C2=C1C(=O)C(C(C)C)=C(O)C2=O [7-acetoxyroyleanone] please.
-- reply 6.3

====

Test system: NCI-60 panel of cancer cell lines
measurement_name: CC50 (µM)
Give bare numbers, in µM.

-- ask Quote CC50 reported for CC(=O)O[C@@H]1C[C@H]2C(C)(C)CCC[C@]2(C)C2=C1C(=O)C(C(C)C)=C(O)C2=O please.
-- reply 11.5

====

Tested on: HCC-2996 (colon cancer) cells
experiment_summary: NCI-60 five dose screen, HCC-2996
particulars: read-out: LC50; HCC-2996, Colon
measurement_name: CC50 (µM)
Answers are plain numbers, in µM.

-- ask Quote CC50 reported for CC(=O)O[C@@H]1C[C@H]2C(C)(C)CCC[C@]2(C)C2=C1C(=O)C(C(C)C)=C(O)C2=O please.
-- reply 6.41

====

System: DU-145 (prostate cancer) cells
experiment_summary: NCI-60 five dose screen, DU-145
particulars: read-out: LC50; DU-145, Prostate
measurement_name: CC50 (µM)
One number for each entry, in µM.

-- ask Quote CC50 reported for CC(=O)O[C@@H]1C[C@H]2C(C)(C)CCC[C@]2(C)C2=C1C(=O)C(C(C)C)=C(O)C2=O please.
-- reply 5.67
